Tested on: Staphylococcus aureus H 228
Structures can show the parent of a compound that is named as a salt.
endpoint: MIC (µg/mL)
Write down the numeric answer in µg/mL and omit the unit.

| compound | MIC [µg/mL] |
| --- | --- |
| CCn1cc(C(=O)O)c(=O)c2cc(F)c(N3CC4CCC3CN4C)nc21.Cl (stereo not drawn) [Ex. 10a] | 0.4 |
| O=C(O)c1cn(C2CC2)c2nc(N3CCN4CCC3C4)c(F)cc2c1=O (stereo not drawn) | 0.8 |
| O=C(O)c1cn(C2CC2)c2c(F)c(N3CC4CCC3CN4)c(F)cc2c1=O (stereo not drawn) | 0.4 |
| O=C(O)c1cn(C2CC2)c2c(F)c(N3CC4CC3CN4)c(F)cc2c1=O (stereo not drawn) | 0.8 |
| O=C(O)c1cn(C2CC2)c2nc(N3CC4CCC3CN4)c(F)cc2c1=O (stereo not drawn) | 0.05 |

# input What is its MIC for Staphylococcus aureus H 228? Entry: CCn1cc(C(=O)O)c(=O)c2cc(F)c(N3CCN4CCC3C4)c(F)c21 (stereo not drawn)
# output 0.4

# input What is its MIC for Staphylococcus aureus H 228? Entry: CN1CC2CC1CN2c1c(F)cc2c(=O)c(C(=O)O)cn(C3CC3)c2c1F.Cl (stereo not drawn) [Ex. 10c]
# output 0.1

# input What is its MIC for Staphylococcus aureus H 228? Entry: CCn1cc(C(=O)O)c(=O)c2cc(F)c(N3[C@@H]4CC[C@H]3C[C@H](N)C4)nc21 [Ex. 20, hydrochloride]
# output 0.4

# input What is its MIC for Staphylococcus aureus H 228? Entry: CCn1cc(C(=O)O)c(=O)c2cc(F)c(N3CC4CCC3CN4)c(F)c21 (stereo not drawn)
# output 0.4
